- Test target: T1, BMPRII receptor-Fc fusion (UniProt Q13873 27-151, limits assumed)
- T1 construct: BMP receptor-Fc fusion, detected with anti-human IgG-HRP
- T1 sequence (looked up): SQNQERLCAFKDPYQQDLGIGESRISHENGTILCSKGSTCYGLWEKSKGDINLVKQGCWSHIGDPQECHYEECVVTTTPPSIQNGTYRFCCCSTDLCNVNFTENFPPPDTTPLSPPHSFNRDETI
- Protocol: ELISA-like, fixed volume of conditioned media, receptor-Fc
Please provide measured BMPRII binding relative to wild type for the entries that follow.

INSERT INTO measurements (binder, measure_name, result_value) VALUES
  ('BMP-7 variant Q53A (ligand) STGGKQRSQNRSKTPKNQEALRMASVAENSSSDQRQACKKHELYVSFRDLGWADWIIAPEGYAAYYCEGECAFPLNSYMNATNHAIVQTLVHFINPETVPKPCCAPTQLNAISVLYFDDSSNVILKKYRNMVVRACGCH', 'BMPRII binding relative to wild type', '0.26 relative to wt = 1.0'),
  ('BMP-7 variant E60S (ligand) STGGKQRSQNRSKTPKNQEALRMASVAENSSSDQRQACKKHELYVSFRDLGWQDWIIAPSGYAAYYCEGECAFPLNSYMNATNHAIVQTLVHFINPETVPKPCCAPTQLNAISVLYFDDSSNVILKKYRNMVVRACGCH', 'BMPRII binding relative to wild type', '0.88 relative to wt = 1.0');

Next item in the queue.
Write down BMPRII binding relative to wild type measured for item BMP-7 variant R134L (ligand) STGGKQRSQNRSKTPKNQEALRMASVAENSSSDQRQACKKHELYVSFRDLGWQDWIIAPEGYAAYYCEGECAFPLNSYMNATNHAIVQTLVHFINPETVPKPCCAPTQLNAISVLYFDDSSNVILKKYRNMVVLACGCH
1 relative to wt = 1.0
